RUN_DESCRIPTION: chemical genetic growth profiling, strain panel (AID 1159580);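 further: tested at 20 µM; growth read once vehicle control cultures reached saturation at 30 °C; 1 = growth at the plate median or of vehicle wells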
MEASUREMENT_PARAMETERS: S. cerevisiae deletion strains, growth OD, locus YLL041C, strain sdh2
Screen size: about 5,500 compounds; about 2,000 (36%) were called active. Inconclusive results (about 18%) are left out. No stated cut-off is given here; in the data, active means normalized growth mostly below about 0.91 (no sharp cut-off); inconclusive means no clear call, values can overlap the other calls; inactive means mostly above about 0.92. This is one part of the list.
Outcome field: choose from Yes for active, No for inactive

A selection of reference data follows.
# COMPOUND, CLASSIFICATION
records = [
    ("COc1cc2c(cc1O)CC1c3c(cc(O)c(OC)c3-2)CCN1C (centres undefined)", "No"),
    ("CS(=O)(=O)OCCCCOS(C)(=O)=O", "No"),
    ("O=c1cccc2n1C[C@H]1CNCC2C1", "No"),
    ("CC(=O)O[C@H]1CC[C@@]2(C)C(=CCC3C2CC[C@]2(C)C(=O)CCC32)C1 (some centres undefined)", "No"),
    ("c1ccc2[nH]c(-c3cscn3)nc2c1", "No"),
    ("COc1ccc(C[C@H](N)C(=O)N[C@@H]2[C@@H](CO)OC(n3cnc4c(N(C)C)ncnc43)[C@@H]2O)cc1 (some centres undefined)", "No"),
]

In: Per the records of this test, what outcome belongs to `COC(=O)[C@H]1[C@H]2C[C@@H]3c4[nH]c5cc(OC)ccc5c4CCN3C[C@H]2C[C@@H](OC(=O)c2cc(OC)c(OC)c(OC)c2)[C@@H]1OC` ?
Out: No

In: Could you please tell me the result logged for `COP(=S)(OC)Oc1ccc(SC)c(C)c1` in this assay?
Out: No

In: Check the results log: what was the call for CC[C@]1(O)CC2CN(CCc3c([nH]c4ccccc34)[C@@](C(=O)OC)(c3cc4c(cc3OC)N(C=O)[C@H]3[C@@](O)(C(=O)OC)[C@H](OC(C)=O)[C@]5(CC)C=CCN6CC[C@]43[C@@H]65)C2)C1 (some centres undefined) ?
Out: No

###

RUN_DESCRIPTION: chemical genetic growth profiling, strain panel (AID 1159580);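 further: tested at 20 µM; growth read once vehicle control cultures reached saturation at 30 °C; 1 = growth at the plate median or of vehicle wells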
MEASUREMENT_PARAMETERS: S. cerevisiae deletion strains, growth OD, locus YLR058C, strain SHM2, stronger effect = lower value
Out of some 5,500 compounds screened, about 2,000 (36%) were called active. Not shown: some 18% with an inconclusive outcome. The list shows a part of the results.
READOUT_NAME: normalized growth
# answer = number (no unit)

Some molecules with known normalized growth results, for comparison:
# SAMPLE_SMILES, OBS_VALUE
measured = [
    ("CCn1cc(C(=O)O)c(=O)c2cnc(N3CCCC3)nc21", 1.01),
    ("COc1ccc(/C=C/c2cc(O)cc(O)c2)cc1", 0.931),
    ("CCn1cc(C(=O)O)c(=O)c2cc3c(cc21)OCO3", 1.01),
]

Lab book: normalized growth of `O=C(O)c1cc(O)c(O)c(O)c1` noted as 1.06

get_value(item= `O=C(O)c1cc(=O)c(O)c2c(O)c(O)ccc2c1` , readout=normalized growth) returns 1.01

Field normalized growth (entry `CCn1cc(C(=O)O)c(=O)c2ccc(C)nc21` ) reads 0.921

Per the records, this molecule ( `C/C=C/c1ccc(OC)cc1` ) has normalized growth equal to 1.01
